Assay: NCI Yeast Anticancer Drug Screen. Data for the mlh1 rad18 strain (AID 175)
Details: S. cerevisiae mlh1 rad18 strain growth inhibition; at 50.0 µM; hits give high values
Method: Growth inhibition of yeast strains with defined genetic alterations is measured as a screen for potential anti-cancer activity. Selected strains with alterations in DNA damage repair or cell cycle control were exposed to compounds and growth inhibition was measured relative to vehicle treated controls. The strain used in this assay is mlh1 rad18
This is part of a sample that, as a whole, favours compounds with a hit. Of some 79,000 tested, about 15% had one in any assay.
Field: growth inhibition. Provide a value for each of the molecules that follow.
One number for each entry, in %.

In the examples that follow, each entry is paired with its recorded growth inhibition.
{"MOLECULE": "O=C(O)c1ccccc1N=N/C(=N\\Nc1ccccc1C(=O)O)c1ccnc2ccccc12", "UNITS LABEL": "%", "growth inhibition": 26.9}
{"MOLECULE": "COC(=O)c1nc(=S)[nH]c(C(=O)OC)c1C(=O)c1cccc2ccccc12", "UNITS LABEL": "%", "growth inhibition": 13.1}
{"MOLECULE": "CCc1ccc(C(=O)O)cc1S(=O)(=O)Cl", "UNITS LABEL": "%", "growth inhibition": 1.45}
{"MOLECULE": "CC(=O)NC1C(O)OC(COCc2ccccc2)C(OCc2ccccc2)C1OCc1ccccc1 (stereo unspecified)", "UNITS LABEL": "%", "growth inhibition": -15.1}
{"MOLECULE": "CC(C)(C)CC(C)(C)NCc1ccc(Cl)cc1", "UNITS LABEL": "%", "growth inhibition": 60.6}

Data request, read-out growth inhibition, for O=C(COc1ccc2c(=O)cc(-c3ccc(Cl)cc3)oc2c1)N1CCN(c2ccccc2)CC1
10.9

----------
assay: NCI Yeast Anticancer Drug Screen. Data for the rad50 strain (AID 155);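 also: 0% = growth of vehicle-only cultures of the same strain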; conditions: S. cerevisiae rad50 strain growth inhibition; at 50.0 µM; hits give high values
Compounds without any hit were thinned out: in the full panel of roughly 79,000, 15% have a hit.
MEASUREMENT TYPE: growth inhibition (%)
Answers are plain numbers, in %.

Consider the reported growth inhibition for these molecules:
{"MOLECULE": "O=C(NN1C(=O)C(Cl)C1c1cccc(Cl)c1)c1ccccc1O (configuration not stated)", "growth inhibition [%]": -58.4}
{"MOLECULE": "CCc1cccc(CC)c1NC(=O)c1ccc(C)cc1", "growth inhibition [%]": -6.25}
{"MOLECULE": "CCN1C(=O)c2ccccc2C1=O", "growth inhibition [%]": 11.8}
{"MOLECULE": "N=C1N(S(=O)(=O)c2ccccc2)[C@@H](Cc2ccccc2)[C@H](c2ccccc2)C1(c1ccccc1)c1ccccc1", "growth inhibition [%]": -25.1}
{"MOLECULE": "CCc1c([N+](=O)[O-])cc(C(C)(C)C)c(OC)c1[N+](=O)[O-]", "growth inhibition [%]": -9.05}
{"MOLECULE": "Cc1ccc(NC(=O)CSc2nnc(Cc3ccccc3)o2)cc1", "growth inhibition [%]": -15.4}
{"MOLECULE": "CCC(C)(O)P(=O)(O)O (configuration not stated)", "growth inhibition [%]": 5.15}
{"MOLECULE": "CCCCOC(=O)c1cc2ccccc2oc1=O", "growth inhibition [%]": 34.5}

Lab note: each molecule below needs its growth inhibition filled in.
1. O=c1[nH]cc(CCOCc2ccccc2)c(=O)[nH]1
2. CC12C(=O)OC3CCC1CC32 (configuration not stated)

-4.3
10.8

Batch request: growth inhibition for each of the following molecules.
1. CC(=O)C1(SCCO)CCC2C3CCC4=CC(=O)CCC4(C)C3CCC21C (configuration not stated)
2. O=C(Nc1ccc(Cl)c(Cl)c1)c1ccc(C(=O)Nc2ccc(Cl)c(Cl)c2)cc1

1. 91.8
2. 8.35

----------
I'd appreciate it if you could supply growth inhibition values for the items below.
assay: NCI Yeast Anticancer Drug Screen. Data for the cln2 rad14 strain (AID 165);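 also: 0% = growth equal to vehicle treated cultures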; settings: S. cerevisiae cln2 rad14 strain, at 50.0 µM, hits give high values
The panel holds about 79,000 compounds, 15% with a hit somewhere; the sample as a whole holds those more often.
Numbers only, in %.

{"MOLECULE": "COc1cc2c(c(OC)c1OC)C(=O)[C@H]1OC(=O)N[C@@H]21", "READOUT NUMBER": 2.1}
{"MOLECULE": "Nc1ncnc2c1ncn2CCCCCO", "READOUT NUMBER": 7.35}
{"MOLECULE": "C/C=N\\C(N)=S", "READOUT NUMBER": 9.05}
{"MOLECULE": "Nc1cc(=O)[nH]c(N)n1", "READOUT NUMBER": -83.9}
{"MOLECULE": "CN1C2CCC1/C(=C/c1cccc3c1OCO3)C(=O)/C2=C\\c1cccc2c1OCO2", "READOUT NUMBER": -52}

Please state, for each entry, its recorded growth inhibition.
1. Cc1cc[n+](CC(=O)c2ccc(Br)cc2)cc1
2. O=C(COc1ccc(Cl)cc1)NCCOC(=O)COc1ccc(Cl)cc1
3. O=C(O)CCC(NC(=O)c1ccc(Nc2nc3ccccc3nc2C(=O)O)cc1)C(=O)O (configuration not stated)

[22.9, 18.2, 3]

Provide growth inhibition for all items below, preserving their order.
1. CC(NC(=O)C(C)(C)C)c1ccc(-c2ccccc2)cc1 (configuration not stated)
2. CCCCCCCCCCCCCC(=O)N(CCCCCCCCC)CC(O)C(O)C(OC1OC(CO)C(O)C(O)C1O)C(O)CO (configuration not stated)
3. COc1cc(CN(c2ccccc2C(=O)O)S(=O)(=O)c2ccc(C)cc2)ccc1[N+](=O)[O-]
4. Cc1ccccc1NC(=O)NNc1ccccc1

1. 12.6
2. -28.4
3. -19.6
4. 10.7

----------
assay: NCI Yeast Anticancer Drug Screen. Data for the rad50 strain (AID 155);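 also: 0% = growth of vehicle-only cultures of the same strain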; details: S. cerevisiae rad50 strain growth inhibition; at 50.0 µM; hits give high values
This is part of a sample that, as a whole, favours compounds with a hit. Of some 79,000 tested, about 15% had one in any assay.
Kindly supply the reported growth inhibition values for the records listed here.
Give bare numbers, in %.

Count: 5. Required value per item: growth inhibition.
1. CC(C)C(NC(=O)OC(C)(C)C)C(=O)O (configuration not stated)
2. CCOC(=O)/C=C/c1ccc(OCC)cc1
3. O=C1OCC2Cc3ccccc3C(c3ccccc3)=C12 (configuration not stated)
4. COC(=O)N/N=C(/c1nc2ccc([N+](=O)[O-])cc2[nH]c1=O)C(O)c1ccc(OC)c(OC)c1 (configuration not stated)
5. O=C1NC(=NC2CCCCC2)C2(CCN(CCCC3(c4ccc(F)cc4)OCCO3)CC2)N1c1ccccc1

[-11.3, -2.4, -3.85, -3.3, -18.8]

----------
Give measured growth inhibition for each item. Keep answers brief.
test: NCI Yeast Anticancer Drug Screen. Data for the sgs1 mgt1 strain (AID 161);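 also: 0% = growth of cultures given vehicle only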; settings: S. cerevisiae sgs1 mgt1 strain, at 50.0 µM, hits give high values
The panel holds about 79,000 compounds, 15% with a hit somewhere; the sample as a whole holds those more often.
Answers are plain numbers, in %.

{"COMPOUND": "C[Si](C)(COC(N)=O)Cc1ccccc1", "growth inhibition [%]": -15.5}
{"COMPOUND": "CCCCOC(=O)OCCOCCOC(=O)OC(C)C(=O)OCCCC (stereo unspecified)", "growth inhibition [%]": -10.2}
{"COMPOUND": "Nc1ccc(/C=C/c2ccc(N)cc2)cc1", "growth inhibition [%]": -1.4}
{"COMPOUND": "CC1CC(C)CN(S(=O)(=O)c2cc(Cl)c(Oc3ccc([N+](=O)[O-])cc3Cl)c(Cl)c2)C1 (stereo unspecified)", "growth inhibition [%]": 3.75}
{"COMPOUND": "Cc1ccccc1N=Nc1c(C)nc(N)nc1-c1ccccc1", "growth inhibition [%]": 6.2}
{"COMPOUND": "CCCOC(=O)C(OC(=O)c1ccccc1)C(OC(=O)c1ccccc1)C(=O)OCCC (stereo unspecified)", "growth inhibition [%]": -8}
{"COMPOUND": "COc1ccc(/C=C/[n+]2ccccc2)cc1OC", "growth inhibition [%]": 4.05}
{"COMPOUND": "O=C(CC(O)(C(F)(F)F)C(F)(F)F)C(CCCl)C(O)(C(F)(F)F)C(F)(F)F (stereo unspecified)", "growth inhibition [%]": 41.6}
{"COMPOUND": "Cc1ccn2c(=O)c(CCBr)c(C)nc2c1", "growth inhibition [%]": 5.25}
{"COMPOUND": "CC1=C(O)/C(=C/C(C)CCC/C(C)=C/C=C/C(C)CCCc2ccoc2)OC1=O (stereo unspecified)", "growth inhibition [%]": 2.9}

From here, focus on the item given below.
growth inhibition for Cc1ccccc1S(=O)(=O)NC1c2ccccc2Oc2ccccc21 ?
-5.3

----------
Assay: NCI Yeast Anticancer Drug Screen. Data for the cln2 rad14 strain (AID 165);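 also: 0% = growth equal to vehicle treated cultures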
Conditions: S. cerevisiae cln2 rad14 strain, at 50.0 µM, hits give high values
Method: Growth inhibition of yeast strains with defined genetic alterations is measured as a screen for potential anti-cancer activity. Selected strains with alterations in DNA damage repair or cell cycle control were exposed to compounds and growth inhibition was measured relative to vehicle treated controls. The strain used in this assay is cln2 rad14
Compounds without any hit were thinned out: in the full panel of roughly 79,000, 15% have a hit.
MEASUREMENT TYPE: growth inhibition (%)
Give bare numbers, in %.

{"COMPOUND": "O=[N+]([O-])c1ccc(C=Nc2ccc3c(c2)Cc2ccccc2-3)cc1", "growth inhibition (%)": -20.1}
{"COMPOUND": "Cc1cc(Cc2ccc3c(c2)OCO3)ccc1OCC(=O)O", "growth inhibition (%)": 13.4}
{"COMPOUND": "CCC1(CC)SCC(C)(O)NC1=O (stereo not given)", "growth inhibition (%)": -35.4}
{"COMPOUND": "Cc1ccc(N(C)c2cc(=O)n(C)c(=O)[nH]2)cc1C", "growth inhibition (%)": 28.3}
{"COMPOUND": "Cc1ccc(C)c(CNC(=O)C2CCCCC2C(=O)O)c1 (stereo not given)", "growth inhibition (%)": -0.6}

Provide each entry's growth inhibition from the list below.
1. CN(/N=C/c1ccc(Cl)c(Cl)c1)C1=NCCCCN1
2. Cc1ccc(COC(=O)Nc2ccc(C)c(NC(=O)OCc3ccc(C)cc3)c2)cc1
3. CCC(C)CCC(N)C(=O)O (stereo not given)
4. COc1ccc(N=NC(=S)NNc2ccc(OC)cc2Oc2ccccc2)c(Oc2ccccc2)c1
5. COC1/C=C\OC2(C)Oc3c(C)c(O)c4c(O)c(c5c(c4c3C2=O)NC2(CCN(C)CC2)N=5)=NC(=O)/C(C)=C\C=C\C(C)C(O)C(C)C(O)C(C)C(OC(C)=O)C1C (stereo not given)

-6.95
-2.9
-0.1
11.8
10.3

Value source: PubChem BioAssay (NCI)
